- Protocol text: Food effect PK study, two single oral 1000 mg doses of abiraterone acetate, fed (high fat) vs fasted
- Type: in vivo, human
- Test parameters: human, plasma, oral, 1000 mg, Patient 21; Fed; sample time 2.000

| Smiles entry | concentration at 2 h, nM |
| --- | --- |
| C[C@]12CC[C@H](O)CC1=CC[C@@H]1[C@@H]2CC[C@]2(C)C(c3cccnc3)=CC[C@@H]12 | 64.3 |

* * *

- Protocol text: Pharmacokinetic study of abiraterone in hormone refractory prostate cancer patients, oral doses 250-2000 mg/day, fasted
- Assay type: in vivo, human
- Test parameters: male, human; mean; 500 mg/day abiraterone acetate oral, fasted; plasma; read-out: AUCINF_obs
Quantity: AUC(0-inf) (µM·h)

| Compound | Quantity | Output unit | Experimental result |
| --- | --- | --- | --- |
| C[C@]12CC[C@H](O)CC1=CC[C@@H]1[C@@H]2CC[C@]2(C)C(c3cccnc3)=CC[C@@H]12 [Abiraterone] | AUC(0-inf) | µM·h | 1.45 |

* * *

- Protocol text: Food effect PK study, two single oral 1000 mg doses of abiraterone acetate, fed (high fat) vs fasted
- Assay type: in vivo, human
- Test parameters: human, plasma, oral, 1000 mg, Patient 20; Fasted

| Compound | AUC(0-t) |
| --- | --- |
| C[C@]12CC[C@H](O)CC1=CC[C@@H]1[C@@H]2CC[C@]2(C)C(c3cccnc3)=CC[C@@H]12 [Abiraterone] | 12.1 µM·h |

* * *

- Protocol text: Food effect PK study, two single oral 1000 mg doses of abiraterone acetate, fed (high fat) vs fasted
- Assay type: in vivo, human
- Test parameters: human, plasma, oral, 1000 mg, Patient 20; Fasted; sample time 1.017
Quantity: concentration at 1.017 h (nM)

| Compound | Experimental result |
| --- | --- |
| C[C@]12CC[C@H](O)CC1=CC[C@@H]1[C@@H]2CC[C@]2(C)C(c3cccnc3)=CC[C@@H]12 [Abiraterone] | 58.5 |

* * *

- Protocol text: Food effect PK study, two single oral 1000 mg doses of abiraterone acetate, fed (high fat) vs fasted
- Format: in vivo, human
- Test parameters: human, plasma, oral, 1000 mg, Patient 21; Fasted; sample time 6.117
- Procedure: To measure the amount of abiraterone and abiraterone acetate in the samples, these compounds were extracted from 100 uL human plasma using solid phase extraction (SPE) with cation mixed-mode polymer cartridges. Extracts were evaporated to dryness before reconstitution and analysis. Chromatography was carried out using a Luna™ C5 column (5 μm, 50 mm×2.1 mm id) with a gradient mobile phase consisting of 10 mM ammonium acetate and 2% propan-2-ol in acetonitrile. […]
Quantity: concentration at 6.117 h (nM)

| Smiles entry | Experimental result |
| --- | --- |
| C[C@]12CC[C@H](O)CC1=CC[C@@H]1[C@@H]2CC[C@]2(C)C(c3cccnc3)=CC[C@@H]12 | 396 |

* * *

- Protocol text: Food effect PK study, two single oral 1000 mg doses of abiraterone acetate, fed (high fat) vs fasted
- Format: in vivo, human
- Test parameters: human, plasma, oral, 1000 mg, Patient 15; Fed; sample time 24.050 hr
Quantity: concentration at 24.05 hr

| Smiles entry | Quantity | Experimental result |
| --- | --- | --- |
| C[C@]12CC[C@H](O)CC1=CC[C@@H]1[C@@H]2CC[C@]2(C)C(c3cccnc3)=CC[C@@H]12 | concentration at 24.05 hr | 84.3 nM |
